Each item that follows carries a reported self-splicing fitness (ln).
assayText: self-splicing fitness, log relative to wild type (ln ratio); higher = more splicing; Tetrahymena group I intron in knt gene, E. coli kanamycin selection, DiMSum; sequences stand for … in CUCUCU…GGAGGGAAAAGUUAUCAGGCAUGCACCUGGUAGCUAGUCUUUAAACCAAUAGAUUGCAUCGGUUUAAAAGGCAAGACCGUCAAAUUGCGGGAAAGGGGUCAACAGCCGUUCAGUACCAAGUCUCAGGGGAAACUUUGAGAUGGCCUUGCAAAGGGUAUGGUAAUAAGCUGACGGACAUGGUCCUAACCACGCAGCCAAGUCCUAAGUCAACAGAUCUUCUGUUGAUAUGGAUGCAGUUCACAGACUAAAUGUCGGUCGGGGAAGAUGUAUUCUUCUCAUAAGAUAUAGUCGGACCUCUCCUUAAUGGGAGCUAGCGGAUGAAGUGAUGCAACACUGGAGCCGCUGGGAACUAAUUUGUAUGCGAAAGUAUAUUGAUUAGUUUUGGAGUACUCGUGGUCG;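 also: selection with 25 µg/mL kanamycin versus none on LB agar overnight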
conditionSet: 37 °C
// print number alone

# annotated cases, reported self-splicing fitness (ln) shown
sequenceText | self-splicing fitness (ln)
AAUAAGCAAUAUUACGGGUG | -1.04
CGAAAGCAAUAUUACGUCUA | -0.962
AAGCAGCAAUAUUACGUGGC | -1.92

Return self-splicing fitness (ln) for the following sequence: UAAGAGCAAUAUUACGAUGU -1.82

Return self-splicing fitness (ln) for the following sequence: GUUAAGCAAUAUUACGCGGU -2.65

Return self-splicing fitness (ln) for the following sequence: GUCGAGCAAUAUUACGACAU -0.465

Return self-splicing fitness (ln) for the following sequence: GACGAGCAAUAUUACGUCUA -1.43

Return self-splicing fitness (ln) for the following sequence: GGAUAGCAAUAUUACGAGCA -1.05
